These entries and their values trace back to patent US12091411B2.

biological target: IRAK4 (Homo sapiens); construct: Degradation of IRAK4 in OCI-LY10 was quantitatively measured using Meso Scale Discovery technology; endogenous in cells; host or cells: OCI-LY10; assay: IRAK4 MSD Degradation in OCI-LY10; assay type: cell-based; conditions: OCI-LY10 cells, 4 hrs incubation, MSD; read-out: IRAK4 degradation in OCI-LY10 at 4 hrs: DC50
Sequence (Q9NWZ3 whole entry): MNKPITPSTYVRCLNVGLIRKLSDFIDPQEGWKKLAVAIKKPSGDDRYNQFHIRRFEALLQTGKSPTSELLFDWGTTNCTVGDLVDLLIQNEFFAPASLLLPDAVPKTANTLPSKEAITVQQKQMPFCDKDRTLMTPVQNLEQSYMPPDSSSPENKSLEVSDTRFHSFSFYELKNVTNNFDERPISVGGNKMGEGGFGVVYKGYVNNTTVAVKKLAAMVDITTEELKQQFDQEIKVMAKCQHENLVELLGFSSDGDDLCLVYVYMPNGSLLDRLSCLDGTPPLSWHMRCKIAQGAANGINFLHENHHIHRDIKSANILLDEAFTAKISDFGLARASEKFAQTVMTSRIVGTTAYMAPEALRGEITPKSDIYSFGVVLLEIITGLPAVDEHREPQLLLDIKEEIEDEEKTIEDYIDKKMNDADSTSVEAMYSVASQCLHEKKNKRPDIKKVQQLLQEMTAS
Field: DC50. Provide a value for each of the compounds that follow.

Give recorded DC50. C[C@H]1CN(C[C@H]2CC[C@H](n3cc(NC(=O)c4cnn5ccc(N6C[C@H]7C[C@@H]6CO7)nc45)c(C(F)F)n3)CC2)CC[C@@H]1OCC#Cc1cccc2c(N3CCC(=O)NC3=O)cncc12
< 0.01 µM

Output measured DC50 for this item: Cn1c(=O)n(C2CCC(=O)NC2=O)c2cccc(C3CCN(C4CCN([C@H]5CC[C@H](n6cc(NC(=O)c7cnn8ccc(N9C[C@H]%10C[C@@H]9CO%10)nc78)c(C(F)F)n6)CC5)CC4)CC3)c21 (stereo partly shown)
< 0.01 µM

Dear colleague, please send me the reported DC50 for Cn1c(=O)n(C2CCC(=O)NC2=O)c2cccc([C@@H]3CCN(C[C@H]4CC[C@H](n5cc6cc(NC(=O)c7cccc(C#N)n7)c(C(C)(C)O)cc6n5)CC4)C[C@H]3F)c21 (stereo partly shown) when you can.
> 0.2 µM

Supply reported DC50 belonging to this compound: Cn1c(=O)n(C2CCC(=O)NC2=O)c2cccc(N3CCN(C(=O)C[C@]4(O)CC[C@@H](n5cc(NC(=O)c6cnn7cccnc67)c(C(F)F)n5)CC4)CC3)c21 (stereo partly shown)
> 0.2 µM

State its DC50: C[C@H]1CN(C[C@H]2CC[C@H](n3cc(NC(=O)c4cnn5ccc(N6C[C@H]7C[C@@H]6CO7)nc45)c(C(F)F)n3)CC2)CC[C@@H]1OCC#Cc1ccc2c(N3CCC(=O)NC3=O)cncc2c1
0.01 to 0.1 µM

Check the records and state DC50 for COc1ncc([C@H]2CC[C@H](CN3CCC(OCC#Cc4cccc5c4n(C)c(=O)n5C4CCC(=O)NC4=O)CC3)CC2)cc1NC(=O)c1cnn2ccc(N3C[C@H]4C[C@@H]3CO4)nc12 (stereo partly shown)
> 0.2 µM

Give me measured DC50, please, for this compound: CN(C[C@H]1CC[C@H](n2cc(NC(=O)c3cnn4cccnc34)c(C(F)F)n2)CC1)C1CCN(c2cccc3c2n(C)c(=O)n3C2CCC(=O)NC2=O)CC1O (stereo partly shown)
> 0.2 µM

Item O=C1CCN(c2cncc3cc(C4CCN(C5CCN(C[C@H]6CC[C@H](n7cc(NC(=O)c8cnn9ccc(N%10C[C@H]%11C[C@@H]%10CO%11)nc89)c(C(F)F)n7)CC6)CC5)CC4)ccc23)C(=O)N1 : provide DC50
< 0.01 µM

Give the measured DC50 for Cn1c(=O)n(C2CCC(=O)NC2=O)c2cccc(N3CCN(C(=O)C[C@]4(O)CC[C@@H](n5cc6cc(NC(=O)c7cccc(C(F)(F)F)n7)ncc6n5)CC4)CC3)c21 (stereo partly shown)
> 0.2 µM

Provide one value: measured DC50 of Cn1c(=O)n(C2CCC(=O)NC2=O)c2cccc(C#CCN3CCN(C[C@H]4CC[C@H](n5cc(NC(=O)c6cnn7ccc(C8COC8)nc67)c(C(F)F)n5)CC4)CC3)c21 (stereo partly shown)
> 0.2 µM
